Known growth of a selection of molecules
# System: OVCAR-3 ovarian
# test.method.notes: NCI-60 one-dose screen, 48 h (100 = growth as untreated, 0 = no growth, -100 = all killed)
# measurement.setup: 10 µM unless noted
This is part of a sample that, as a whole, favours compounds with a hit. Of some 83,000 tested, about 20% had one in any assay. Active and inactive are the calls of the source. Rule for the calls: active = growth percent below 10; inactive = the rest.

Would you please look over these solved cases?
{"smiles.notation": "O=C(/C=C\\c1ccc(NCc2ccc(C(=O)O)cc2)cc1)CCl", "test.result": "72.4% (inactive)"}
{"smiles.notation": "Cc1cc2c(-c3nc4ccccc4[nH]3)c(O)c(O)cc2c(O)c1-c1c(C)cc2c(-c3nc4ccccc4[nH]3)c(O)c(O)cc2c1O", "test.result": "20.6% (inactive)"}
{"smiles.notation": "O=C(/C=C1\\C(=O)N(Cc2ccc([N+](=O)[O-])cc2)c2ccccc21)c1ccc(OCCN2CCCCC2)cc1", "test.result": "-93.8% (active)"}
{"smiles.notation": "CCOc1ccc(/C=N/NC(=O)c2cccc3ccccc23)cc1OCC", "test.result": "96.4% (inactive)"}

Below: the item to evaluate.
COc1cccc(Cn2cc3c(c2)-c2oncc2CC3)c1 has a reported growth of -30.4% (active)

// provenance: PubChem BioAssay (NCI)
